Molecular target: T1, Human IL2Rγ extracellular domain expressed with a C-terminal myc-myc-hexahistidine tag (human)
T1 construct: also called hIL-2Rg-MMH; hIL-2RG-MMH
T1 chain: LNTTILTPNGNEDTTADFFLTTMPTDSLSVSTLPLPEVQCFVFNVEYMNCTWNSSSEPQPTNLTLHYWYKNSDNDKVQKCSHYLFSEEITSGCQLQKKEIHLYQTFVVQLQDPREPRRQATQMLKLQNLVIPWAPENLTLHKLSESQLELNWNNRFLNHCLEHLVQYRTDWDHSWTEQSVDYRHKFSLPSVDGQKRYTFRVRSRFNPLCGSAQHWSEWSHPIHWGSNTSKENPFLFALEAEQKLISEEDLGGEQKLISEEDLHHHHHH
Assay: SPR, captured mAb, 37C, dissociation pH 7.4
Let's look at some binders and their measured koff.
PROPERTY_NAME: koff (s⁻¹)

BINDER: H4H12884P (antibody, human IgG4 S228P, kappa, V domains shown, anti-IL2Rgamma mAb expressed with human IgG4 Fc) VH: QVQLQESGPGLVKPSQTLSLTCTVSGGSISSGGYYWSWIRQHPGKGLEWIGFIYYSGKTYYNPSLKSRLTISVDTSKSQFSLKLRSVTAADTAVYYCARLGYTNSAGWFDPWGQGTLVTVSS VL: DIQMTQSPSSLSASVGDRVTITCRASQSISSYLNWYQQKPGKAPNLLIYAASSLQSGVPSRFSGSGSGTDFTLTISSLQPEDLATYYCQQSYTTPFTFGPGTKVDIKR
PROPERTY_NAME: koff
VALUE_MEASURED: 0.00151
--
BINDER: H4H12874P (antibody, human IgG4 S228P, kappa, V domains shown, anti-IL2Rgamma mAb expressed with human IgG4 Fc) VH: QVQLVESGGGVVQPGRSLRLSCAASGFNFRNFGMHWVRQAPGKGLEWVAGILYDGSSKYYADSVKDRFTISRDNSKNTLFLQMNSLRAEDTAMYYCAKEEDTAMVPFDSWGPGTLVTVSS VL: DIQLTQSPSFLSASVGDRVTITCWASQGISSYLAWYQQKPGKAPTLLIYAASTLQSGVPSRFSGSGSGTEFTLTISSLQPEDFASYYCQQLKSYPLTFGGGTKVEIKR
PROPERTY_NAME: koff
VALUE_MEASURED: 0.000572
--
BINDER: H4H12871P (antibody, human IgG4 S228P, kappa, V domains shown, anti-IL2Rgamma mAb expressed with human IgG4 Fc; also called REGN9434) VH: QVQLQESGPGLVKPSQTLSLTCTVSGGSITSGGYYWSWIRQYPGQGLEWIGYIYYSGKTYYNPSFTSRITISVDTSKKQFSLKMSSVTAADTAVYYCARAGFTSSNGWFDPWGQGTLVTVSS VL: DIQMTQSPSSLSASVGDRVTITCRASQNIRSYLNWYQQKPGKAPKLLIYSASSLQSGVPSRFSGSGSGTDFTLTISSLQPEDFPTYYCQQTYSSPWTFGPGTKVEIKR
PROPERTY_NAME: koff
VALUE_MEASURED: 0.00111
